FYI, the data here is from ChEMBL document CHEMBL1201862.

test system: IGROV-1; experiment: NCI tumour cell line growth inhibition, 48 h
The source made the active and inactive calls. Rule as the data show it: active = GI50 up to about 1.1 µM and inactive = higher.
measurement kind: GI50

[ask] Quick one: GI50 of COc1ccc(/N=N/c2c(C)c(C#N)c(=S)n(C3OC(CO)C(O)C(O)C3O)c2-c2ccccc2)cc1 (stereo not drawn) ?
[reply] 30.4 µM (inactive)

[ask] So what's the measured GI50 for this one? O=C1c2ccccc2-c2c1c(-c1ccccc1)c1n2C2(C(=O)c3ccccc3C2=O)C2C(=O)N(c3ccccc3)C(=O)C12 (stereo not drawn)
[reply] 32.3 µM (inactive)

[ask] State the recorded GI50 for this entry: Cc1ccc(C2=[N+]([O-])c3ccccc3C2=O)cc1
[reply] 15.7 µM (inactive)

[ask] Which GI50 is listed for C=CC(O)(CBr)CCC(Br)C(C)(C)Cl (stereo not drawn) ?
[reply] > 10 µM (inactive)

[ask] Can you share its GI50? I mean this compound: Cc1cc(=O)oc2cc(OCc3nc4ccccc4c(=O)[nH]3)ccc12
[reply] > 100 µM (inactive)

[ask] // query GI50 value for entry COc1cc2c(c(OC(C)=O)c1OC(C)=O)-c1ccc(SC)c(=O)cc1C(NC(C)=O)CC2 (stereo not drawn)
[reply] 4.45 µM (inactive)

[ask] Consider the compound O=C1N(c2ccccc2)C2(O)C(=O)c3ccccc3C2(O)N1c1ccccc1 (stereo not drawn) and give its measured GI50.
[reply] > 100 µM (inactive)

[ask] So what's the measured GI50 for this one? S=C1N=C(Cl)/C(=C\c2ccco2)N1
[reply] > 100 µM (inactive)

* * *

tested on: SK-MEL-28; experiment: NCI tumour cell line growth inhibition, 48 h
Activity calls are given as the source filed them. No stated cut-off is given here; in the data, active = GI50 up to about 1.1 µM and inactive = higher.
Valid outcomes are listed here; reply with one: Y for active, N for inactive

[ask] Kindly provide the recorded test outcome for the following molecule: CC(=O)O[C@H]1CC[C@]2(C=O)[C@H]3CC[C@]4(C)[C@@H](C5=CC(=O)OC5)CC[C@]4(O)[C@@H]3CC[C@]2(O)C1 [STROPHANTHIDIN ACETATE]
[reply] Y

[ask] Tell me the assay call for CC1(Cc2ccccc2)NC(=S)NC1=O (configuration not stated) please.
[reply] N

[ask] Record request — test call for Oc1ccc(O)c(Cc2ccccc2)c1
[reply] N

[ask] Could you please tell me the result logged for CC1=C(C(=O)Nc2cc(=O)n(C)c(=O)n2C)C(c2ccc([N+](=O)[O-])cc2)C(C(=O)Nc2cc(=O)n(C)c(=O)n2C)=C(C)N1 in this assay?
[reply] N

[ask] State the result this test recorded for CC(C)(C)[Si](C)(C)OC[C@H](/C=C\CCCC(=O)O)NC1(c2ccccc2)c2ccccc2-c2ccccc21 .
[reply] N

[ask] Status in this test for O=S(=O)(c1cccc(C(F)(F)F)c1)N1c2ccccc2-n2cccc2C1c1cccnc1 (configuration not stated) ?
[reply] N

[ask] Could you please tell me the result logged for O=c1oc2c(Cl)cc(Cl)cc2cc1-c1cn2c(n1)sc1ccccc12 in this assay?
[reply] N

[ask] GET /call?item= COc1cc(C(O)c2ccc3c(c2)OCO3)cc(OC)c1OC (configuration not stated) returns the recorded outcome of this test.
[reply] N

[ask] Hi, do you know how Nc1nc(N)c2ncn(Cc3ccccc3)c2n1 came out in this test?
[reply] N

[ask] Could you check what this test reported for N#Cc1c(-c2ccc([N+](=O)[O-])cc2)c(C#N)c(=O)n(NS(=O)(=O)c2ccccc2)c1S ?
[reply] N

[ask] # fetch the recorded call for FC(F)(F)c1ccccc1/C=N/C12CC3CC(CC(C3)C1)C2 here
[reply] N

[ask] // outcome(item) with item = CSc1scc2c1/C(=N/NC(N)=O)CCC2
[reply] N

[ask] Look up the recorded call for COc1ccc2c(c1)-c1nn(CCN(C)C)c3ccc(C(=O)NCCCN(C)CCCNC(=O)c4ccc5c6c(c7cc(OC)ccc7nc46)NN5CCN(C)C)c(c13)N2 in this test.
[reply] Y

[ask] Tell me the assay call for COC(=O)C1=CNC(C(=O)OC)=NN1 please.
[reply] N

[ask] State the result this test recorded for COC1=CC(=O)C2=C(C[C@@]3(C)C(=C2)C(CO)=CC[C@H]3O)C1=O .
[reply] N

[ask] Dear all, I need the recorded test outcome for O=C(O)C1(C(=O)O)CC1 , thank you.
[reply] N

[ask] Which outcome was entered for the molecule O=C(Nc1ccccc1)c1cc2c(cc1Cl)Sc1nccn1S2(=O)=O in this test?
[reply] N

[ask] Status in this test for OCC(CCc1c[nH]c2ccccc12)c1c[nH]c2ccccc12 (configuration not stated) ?
[reply] N

[ask] So what was the verdict on CSc1c(C#N)c(S)[nH]c(=O)c1C#N in this test?
[reply] N

[ask] What did the test return for COC(=O)[C@@H]1CN(C(=O)Cc2ccccc2)C(=O)N1 ?
[reply] N

[ask] How did this test come out for Cc1ccnc2nc(-c3ccc(Cl)cc3)cc(O)c12 ?
[reply] N

[ask] What outcome does the record of this test show for CN(C)c1ccc(C(C#N)N2CCCN(C(C#N)c3ccc(N(C)C)cc3)C2c2ccc(N(C)C)cc2)cc1 (configuration not stated) ?
[reply] N

[ask] Status in this test for Cc1cn(C(CO)OC(CO)CN(O)C2C3CC4CC(C3)CC2C4)c(=O)[nH]c1=O (configuration not stated) ?
[reply] N

[ask] Look up the recorded call for Cc1ccc2c(=O)cc(Cc3csc4ccccc34)[nH]c2n1 in this test.
[reply] N

[ask] Assay result, entry O=C(Cc1ccccc1)NN1C(=O)/C(=C\c2cccc(O)c2)S/C1=N\c1ccccc1 — outcome?
[reply] N

[ask] Dear colleague, could you share the recorded outcome for C[C@@H](c1ccccc1)N(CC#N)[C@H]1CCC[C@]1(O)/C=C/c1ccc2c(c1)OCO2 when you have a moment?
[reply] N

[ask] Called result for Fc1ccc(C(OCCN2CCC3CCC(C2)N3C/C=C/c2ccco2)c2ccc(F)cc2)cc1 (configuration not stated)
[reply] N

* * *

tested on: TK-10; experiment: NCI tumour cell line growth inhibition, 48 h
The source made the active and inactive calls. No stated cut-off is given here; in the data, active = GI50 up to about 1.1 µM and inactive = higher.
measurement kind: GI50

[ask] Look at this molecule and give its reported GI50. CN(C)c1nc(N)c(C#N)c(C#N)c1C#N
[reply] > 10 µM (inactive)

[ask] State the recorded GI50 for this entry: CC(=O)NC1=C(C)C(=O)c2c(nc3n2CCC3O)C1=O (configuration not stated)
[reply] > 100 µM (inactive)

[ask] GET /values?readout=GI50&item= CCc1c(C#N)c(=O)[nH]c(=O)n1CCN1CCN(C(=O)NCCCCCCNC(=O)N2CCN(CCn3c(CC)c(C#N)c(=O)[nH]c3=O)CC2)CC1
[reply] > 100 µM (inactive)

[ask] Could you share which GI50 value was measured for COc1cc2c(cc1Cc1c(F)cccc1Cl)nc(-c1c(F)cccc1Cl)n2Cc1c(F)cccc1Cl ?
[reply] > 100 µM (inactive)

[ask] Requested field: GI50. Item: CC1=C2C(=CC(C)(C)C2O)C(=O)C(C)(O)C12CC2 (configuration not stated)
[reply] 0.0216 µM (active)

[ask] Looking for the measured GI50 of NC12CCC(CC1=O)C2 (configuration not stated) , can you help?
[reply] > 100 µM (inactive)

[ask] Consider the molecule CCn1cc(C(=O)O)c(=O)c2cc(F)c(N3CCNCC3)nc21 and give its measured GI50.
[reply] > 100 µM (inactive)

[ask] Please report the recorded GI50 for NC12CC3CC4C1CC1CC2C(C3)C4(N)C1 .
[reply] 50.7 µM (inactive)

[ask] What GI50 value was documented for this molecule, COC(=O)[C@@H]1CN(C(=O)Cc2ccccc2)C(=O)N1 ?
[reply] > 100 µM (inactive)

[ask] Endpoint output: GI50 of COc1ccc(N[S+]([O-])c2ccc(Cl)cc2)cc1 (configuration not stated) . Value?
[reply] > 100 µM (inactive)

[ask] Which measured GI50 value corresponds to Cc1ccc(S(=O)(=O)Oc2coc(CO)cc2=O)cc1 ?
[reply] 17.5 µM (inactive)

[ask] Quick check: GI50 of N#CC(C#N)=C(C(C#N)C#N)C(C#N)C#N ?
[reply] > 100 µM (inactive)

* * *

system: SF-539; assay: NCI tumour cell line growth inhibition, 48 h
Active and inactive are the calls of the source. No stated cut-off is given here; in the data, active = GI50 up to about 1.1 µM and inactive = higher.
Your reply should match one of these outcome classes. active, inactive

[ask] State the result this test recorded for O=c1/c(=C/c2ccc([N+](=O)[O-])o2)sc2n1[C@@H](c1ccc(Cl)cc1)C=C(c1cc(F)c(Cl)cc1Cl)N=2 .
[reply] inactive

[ask] Test call for this molecule, please: S=C(N/N=C\c1ccccn1)N(Cc1ccccn1)Cc1ccccn1
[reply] inactive

[ask] Recorded test outcome, item COC(=O)/C=C1\C(CO[Si](C)(C)C(C)(C)C)OC(n2ccc(=O)[nH]c2=O)C1O (centres undefined)
[reply] inactive

[ask] Hey, what did the test say about Cc1cc2ccccc2n2c1nc1ccccc12 ?
[reply] inactive

[ask] Could you kindly confirm the outcome this assay logged for COc1ccc(/N=N/c2c(C)c(C#N)c(=S)n(C3OC(CO)C(O)C(O)C3O)c2-c2ccccc2)cc1 (centres undefined) ?
[reply] inactive

[ask] For this molecule, state the assay outcome: FC(F)(F)c1ccccc1/C=N/C12CC3CC(CC(C3)C1)C2
[reply] inactive

[ask] Field: outcome | Entry: C[C@H]1C2Cc3cc(O)ccc3[C@@]1(C)CCN2CCc1ccc(N)cc1
[reply] inactive

[ask] Test call for this molecule, please: CC1CCC2(O)C3(C)CC4(O)OC2(C1O)C1(O)C3(O)C(OC(=O)c2ccc[nH]2)C(O)(C(C)C)C41C (centres undefined)
[reply] inactive

[ask] Test call, this molecule: CCOC(=O)c1cnc2oc(/C=N/N3CC(CN4CCOCC4)OC3=O)cc2c1O (centres undefined)
[reply] inactive

[ask] # outcome recorded in this test, key = CCOC(=O)C[C@@]12CCCN[C@]1(C)CCc1ccccc12
[reply] inactive

[ask] Look up the recorded call for CCC(=O)N(c1ccccc1)C(C)CN1CCC(O)(c2ccccc2)CC1 (centres undefined) in this test.
[reply] inactive

[ask] Entry COc1ccc2nc3ccccc3c(NCCCCN(CCCl)CCCl)c2c1 : call = ?
[reply] active

[ask] Which outcome was assigned to C/C(=N\NC(N)=S)c1nc2cccnc2[nH]1 in this test?
[reply] inactive

[ask] Assay outcome for Cc1ccc(S(=O)(=O)NNCNC(=O)c2ccccc2)cc1 : what was it?
[reply] inactive
